biological target: Toll-like receptor 2 (Mus musculus); experiment: Agonist activity at mouse TLR2 transfected in HEK293 cells relative to control; type: cell-based; parameters: concentration or dose not given beside the values
outcome.measure: Activity (%)

Recall and state the measured Activity for CCC(=O)OCC(CSC[C@@H](NC(=O)Cc1ccccc1)C(=O)N[C@@H](CO)C(=O)N[C@@H](CCCCN)C(=O)N[C@@H](CCCCN)C(=O)N[C@@H](CCCCN)C(=O)N[C@@H](CCCCN)C(=O)O)OC(=O)CC (some centres undefined) .
0

A. CCCCCCCCCC(=O)N[C@H](CSCC(COC(=O)CC)OC(=O)CC)C(=O)N[C@@H](CO)C(=O)N[C@@H](CCCCN)C(=O)N[C@@H](CCCCN)C(=O)N[C@@H](CCCCN)C(=O)N[C@@H](CCCCN)C(=O)O (some centres undefined)
B. CCCCCCCCCCCCCC(=O)N[C@H](CSCC(COC(=O)CCCCC)OC(=O)CCCCC)C(=O)N[C@@H](CO)C(=O)N[C@@H](CCCCN)C(=O)N[C@@H](CCCCN)C(=O)N[C@@H](CCCCN)C(=O)N[C@@H](CCCCN)C(=O)O (some centres undefined)
Which entry has a larger number for Activity, A or B ? Please indicate the selected item by its label.
A
(A: 26%, B: 0%)

* * *

target: Toll-like receptor 1/2 (Mus musculus); assay: Agonist activity at TLR2/TLR1 in mouse Macrophage cell line
Readings of EC50 for the listed compounds

# annotated cases, reported EC50 shown
Recall and state the measured EC50 for O=C(NCCc1ccc(F)cc1)[C@@H]1CN(C(=O)c2cccc(C(=O)N3C[C@@H](C(=O)NCCc4ccc(F)cc4)[C@H](C(=O)NCCc4ccc(F)cc4)C3)c2)C[C@H]1C(=O)NCCc1ccc(F)cc1 .
> 5 µM

Recall and state the measured EC50 for CCCCCCCCCCCCCCCCNC(=O)[C@@H]1CN(C(=O)c2ccc(C(=O)N3C[C@@H](C(=O)NCCCCCCCCCCCCCCCC)[C@H](C(=O)NCCCCCCCCCCCCCCCC)C3)cc2)C[C@H]1C(=O)NCCCCCCCCCCCCCCCC .
> 0.005 µM

***
Recall and state the measured EC50 for CCCCCCCCCCCCCCCCNC(=O)[C@@H]1CN(C(=O)c2ccc(C(=O)N3C[C@@H](C(=O)N[C@H]4C[C@@H]4c4ccccc4)[C@H](C(=O)N[C@@H]4C[C@H]4c4ccccc4)C3)cc2)C[C@H]1C(=O)NCCCCCCCCCCCCCCCC .
1 µM

Recall and state the measured EC50 for O=C(N[C@H]1C[C@@H]1c1ccccc1)[C@@H]1CN(C(=O)[C@H]2CC[C@@H](C(=O)N3C[C@@H](C(=O)N[C@H]4C[C@@H]4c4ccccc4)[C@H](C(=O)N[C@H]4C[C@@H]4c4ccccc4)C3)CC2)C[C@H]1C(=O)N[C@H]1C[C@@H]1c1ccccc1 .
> 5 µM

* * *

biological target: Toll-like receptor 2 (Homo sapiens); assay: Agonist activity at TLR2 (unknown origin)
Sequence (O60603 whole entry): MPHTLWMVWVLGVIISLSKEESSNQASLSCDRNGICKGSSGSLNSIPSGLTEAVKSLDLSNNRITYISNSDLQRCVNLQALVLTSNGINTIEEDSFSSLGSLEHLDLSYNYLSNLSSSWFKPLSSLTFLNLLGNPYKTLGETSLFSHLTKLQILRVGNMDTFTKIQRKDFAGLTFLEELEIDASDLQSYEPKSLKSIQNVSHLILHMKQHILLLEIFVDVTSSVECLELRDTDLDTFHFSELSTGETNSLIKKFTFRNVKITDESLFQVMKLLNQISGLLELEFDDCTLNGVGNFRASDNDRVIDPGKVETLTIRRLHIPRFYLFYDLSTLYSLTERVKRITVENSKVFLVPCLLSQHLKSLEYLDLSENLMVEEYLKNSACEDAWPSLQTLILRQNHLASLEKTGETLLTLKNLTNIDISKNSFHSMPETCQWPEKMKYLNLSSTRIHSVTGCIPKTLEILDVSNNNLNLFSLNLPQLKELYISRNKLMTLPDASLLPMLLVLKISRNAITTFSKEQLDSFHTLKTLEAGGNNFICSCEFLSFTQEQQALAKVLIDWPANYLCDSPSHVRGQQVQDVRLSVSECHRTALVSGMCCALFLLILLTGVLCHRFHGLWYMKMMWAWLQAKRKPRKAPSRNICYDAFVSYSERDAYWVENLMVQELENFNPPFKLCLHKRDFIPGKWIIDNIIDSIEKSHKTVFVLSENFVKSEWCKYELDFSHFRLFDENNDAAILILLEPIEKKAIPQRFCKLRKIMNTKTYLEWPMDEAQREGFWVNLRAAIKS
Readings of EC50 for the listed compounds
Write it as a number; the unit µM goes unstated.

Recall and state the measured EC50 for CCCCCCCCCCCCCCCC(=O)OCC[C@H](CS[C@H](N)C(=O)N[C@@H](CO)C(=O)N[C@@H](CCCCN)C(=O)N[C@@H](CCCCN)C(=O)N[C@@H](CCCCN)C(=O)N[C@@H](CCCCN)C(=O)N[C@@H](CO)C(=O)N[C@@H](CC(C)C)C(=O)N[C@@H](CC(C)C)C(=O)N[C@@H](CCSC)C(=O)N[C@@H](Cc1c[nH]c2ccccc12)C(=O)N[C@H](C(=O)N[C@H](C(=O)N[C@@H](CCC(N)=O)C(=O)N[C@H](C(=O)O)C(C)C)[C@@H](C)O)[C@@H](C)CC)OC(=O)CCCCCCCCCCCCCCC .
0.609

Consider now this further compound.
Recall and state the measured EC50 for CCCCCCCCCCCCCCCC(=O)OC[C@H](CSC[C@H](NC(=O)COCC(=O)NCCCOCCOCCOCCCNC(C)=O)C(=O)NCC(=O)N[C@H](CO)C(=O)COCC(=O)NCCCOCCOCCOCCCN)OC(=O)CCCCCCCCCCCCCCC .
0.02

meta.source: ChEMBL document CHEMBL5226282
